System under test: Aldehyde dehydrogenase 1A1 (Homo sapiens) (UniProt P00352)
Method description: qHTS for Inhibitors of the Aldehyde Dehydrogenase Family (ALDH1A1) Confirmatory screens (AID 2061316); further: nearly all actives have a fitted effect of over 65% in size; further: potency means the concentration at half of the fitted maximal effect
Settings: ALDH inhibition qHTS; series mostly up to 47.3 µM
Records with an inconclusive call do not appear. Activity calls are given as the source filed them. The call rests on the fitted dose curve; in most records, active means well fitted inhibition curve with a large enough effect; inconclusive means small, poorly fitted or top-dose-only effect; inactive means no such curve, though single readings can be large or run the other way.
Assay metric: Potency

Solved cases below.
COc1cccc(CNc2ccc(S(=O)(=O)Nc3cccc4ccncc34)cc2)c1O
inactive
CC(O)c1ccc(-c2ccc3ncnc(NCc4nccs4)c3c2)o1 (stereo not given)
10.1 µM (active)
CC(C)N1CCc2c(sc(NC(=O)C3CC3)c2-c2nc3ccccc3s2)C1
7.98 µM (active)
Cc1csc(CN(C)c2ncnc3ccc(-c4ccc5c(c4)OCO5)cc23)n1
12.7 µM (active)
CNc1sc(-c2cccc3ccccc23)nc1C#N
5.04 µM (active)
COc1ccc(-n2c(C)c(C(C)=O)c3cc(O)ccc32)cc1
inactive
Cc1ccc(NS(=O)(=O)c2cc3c(cc2N[C@@H](C)CO)NC(=O)CC3)cc1Cl
inactive
COc1ccc(C2Nc3ccccc3C(=O)N2Cc2ccccc2C)cc1COc1ccc(NC(C)=O)cc1 (stereo not given)
25.2 µM (active)
c1nc(NC[C@@H]2CCCO2)c2cc(-c3ccc4c(c3)OCO4)ccc2n1
20.1 µM (active)

Then this compound:
Known value: Aldehyde dehydrogenase 1A1 (Homo sapiens) (UniProt P00352) Potency of the compound Cc1ccc(CNc2ncnc3ccc(-c4sc(C)nc4C)cc23)o1 equals 15.9 µM (active)

Origin of measurements: PubChem BioAssay (NCATS)
